Answer each item with its documented pIC50.
# target system: p70S6K (Homo sapiens)
# Sequence (P23443 whole entry): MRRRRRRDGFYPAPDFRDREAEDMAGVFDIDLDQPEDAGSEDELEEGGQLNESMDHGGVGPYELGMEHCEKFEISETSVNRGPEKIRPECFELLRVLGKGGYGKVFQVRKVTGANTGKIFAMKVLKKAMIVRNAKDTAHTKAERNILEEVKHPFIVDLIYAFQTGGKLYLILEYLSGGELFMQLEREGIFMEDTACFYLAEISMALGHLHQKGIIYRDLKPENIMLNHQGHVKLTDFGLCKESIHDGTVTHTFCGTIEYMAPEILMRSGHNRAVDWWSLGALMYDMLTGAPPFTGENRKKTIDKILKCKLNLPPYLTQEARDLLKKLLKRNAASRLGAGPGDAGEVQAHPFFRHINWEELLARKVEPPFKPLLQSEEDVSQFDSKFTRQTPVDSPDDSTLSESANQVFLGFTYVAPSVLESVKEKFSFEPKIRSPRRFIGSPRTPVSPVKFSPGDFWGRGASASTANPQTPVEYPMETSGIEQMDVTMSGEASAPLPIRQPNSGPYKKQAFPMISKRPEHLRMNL
# assay info: Luciferase-coupled chemiluminescence kinase assay (ATP consumption)
# Assay type: biochemical
pIC50: −log10 of the molar value.

Query pIC50 for CCc1n[nH]c2ncnc(N3CCN(c4cc(Cl)ccc4C)CC3)c12
> 7.00

Please give the documented pIC50 of Cc1ccccc1N1CCN(c2ncnc3[nH]ncc23)CC1
6.00 to 7.00

State, in one line, measured pIC50 of FC(F)(F)c1cccc(N2CCN(c3ncnc4[nH]cnc34)CC2)c1
6.00 to 7.00

Specify pIC50 for Cc1ccc(Cl)cc1N1CCN(c2ncnc3[nH]nc(-c4ccc(F)cc4)c23)CC1 and stop.
6.00 to 7.00

Please list pIC50 recorded for the molecule CCc1n[nH]c2ncnc(N3CCN(c4cccc(Cl)c4)CC3C(=O)OC)c12 (centres unmarked)
5.00 to 6.00

# return recorded pIC50 for input Cc1ccc(Cl)cc1N1CCN(c2ncnc3[nH]nc(-c4ccc(OCCN5CCOCC5)cc4)c23)CC1
5.00 to 6.00

Look up and report measured pIC50 for this entry: CCc1n[nH]c2ncnc(N3CCN(c4cc(Cl)c(OCCCN(C)C)cc4C)CC3)c12
6.00 to 7.00

Name the recorded pIC50 of the molecule listed here: Clc1ccc(N2CCN(c3ncnc4[nH]cnc34)CC2)cc1
5.00 to 6.00

Answer with reported pIC50 of Cc1ccc(Cl)cc1N1CCN(c2ncnc3[nH]nc(-c4cccc(N)c4)c23)CC1
6.00 to 7.00

Read the entry CC(=O)Nc1ccc(-c2n[nH]c3ncnc(N4CCN(c5cc(Cl)ccc5C)CC4)c23)cc1 and write its reported pIC50.
6.00 to 7.00

Report measured pIC50; entry is Clc1ccccc1N1CCN(c2ncnc3[nH]cnc23)CC1
5.00 to 6.00

Input Cc1ccc(-c2n[nH]c3ncnc(N4CCN(c5cc(Cl)ccc5C)CC4)c23)cc1 , output reported pIC50.
5.00 to 6.00

Report pIC50 for Cc1ccc(Cl)cc1N1CCN(c2ncnc3[nH]nc(-c4ccc(C#N)cc4)c23)CC1
5.00 to 6.00

Output measured pIC50 for this item: CCc1n[nH]c2ncnc(N3CCN(c4cccc(Cl)c4)C(C(=O)NCCN4CCOCC4)C3)c12 (centres unmarked)
5.00 to 6.00

Find the measured pIC50 of CCc1n[nH]c2ncnc(N3CCN(c4cc(Cl)cc(NCCN(C)C)c4C)CC3)c12 and report it.
> 7.00

Using known records, supply pIC50 for CCc1n[nH]c2ncnc(N3CCN(c4cccc(Cl)c4)C(CO)C3)c12 (centres unmarked)
> 7.00

Supply measured pIC50 of CCc1n[nH]c2ncnc(N3CCN(c4cc(Cl)cc(OCCN(C)C)c4OC)CC3)c12 in your reply.
> 7.00

Tell me its pIC50 given CCc1n[nH]c2ncnc(N3CCN(c4cc(Cl)cc(C(=O)NCCN(C)C)c4OC)CC3)c12 as the entry.
> 7.00

Find the measured pIC50 of CCc1n[nH]c2ncnc(N3CCN(c4cc(Cl)cc(C#CCN(C)C)c4C)CC3)c12 and report it.
> 7.00

Consider the molecule COc1ccccc1-c1n[nH]c2ncnc(N3CCN(c4cc(Cl)ccc4C)CC3)c12 and give its recorded pIC50.
6.00 to 7.00

Report pIC50 for COc1cccc(N2CCN(c3ncnc4[nH]ccc34)CC2)c1
6.00 to 7.00

Complete the entry with pIC50 for Cc1ccc(Cl)cc1N1CCN(c2ncnc3[nH]nc(C)c23)CC1
> 7.00

Specify measured pIC50 for Cc1ccc(Cl)cc1N1CCN(c2ncnc3[nH]nc(-c4ccc5c(c4)OCO5)c23)CC1 .
6.00 to 7.00

Check the records and state pIC50 for c1ccc(N2CCN(c3ncnc4[nH]ncc34)CC2)cc1
6.00 to 7.00

Note down pIC50 recorded for Cc1ccc(Cl)cc1N1CCN(c2ncnc3[nH]nc(/C=C/C(=O)OC(C)(C)C)c23)CC1
6.00 to 7.00

Answer with the recorded pIC50 of Fc1ccccc1N1CCN(c2ncnc3[nH]cnc23)CC1 only.
5.00 to 6.00

Note down pIC50 recorded for Cc1ccccc1N1CCN(c2ncnc3[nH]cnc23)CC1
6.00 to 7.00

Please supply the value of reported pIC50 for the item Clc1cccc(N2CCN(c3ncnc4[nH]ncc34)CC2)c1
6.00 to 7.00

Specify measured pIC50 for COc1cccc(-c2n[nH]c3ncnc(N4CCN(c5cc(Cl)ccc5C)CC4)c23)c1 .
5.00 to 6.00

Determine its reported pIC50: Cc1ccc(Cl)cc1N1CCN(c2ncnc3[nH]nc(N4CCN(C)CC4)c23)CC1
5.00 to 6.00

For the molecule CCc1n[nH]c2ncnc(N3CCN(c4cc(Cl)cc(C(=O)OC)c4OC)CC3)c12 , give its reported pIC50.
6.00 to 7.00

Identify measured pIC50 corresponding to Cc1c(NCCN2CCCC2)cc(OCC(F)(CF)CF)cc1N1CCN(c2ncnc3[nH]nc(/C=C/C(=O)O)c23)CC1
> 7.00

Report pIC50 for Cc1ccc(Cl)cc1N1CCN(c2nc(-c3ccccc3)nc3[nH]nc(C)c23)CC1
5.00 to 6.00

Complete the entry with pIC50 for Cc1ccc(Cl)cc1N1CCN(c2ncnc3[nH]nc(-c4cccc(O)c4)c23)CC1
6.00 to 7.00

Annotate the molecule Cc1ccc(Cl)cc1N1CCN(c2ncnc3[nH]nc(CCCO)c23)CC1 with its measured pIC50.
> 7.00
